# key: entry, value: half-life at 0.5 μM
- measurement.notes: Human liver microsome stability assay
- Format: in vitro ADME
- test.settings: both sexes, human, microsomes, pH 7.4
Numbers only here, please. The scale is min.

Please review the following examples before continuing.
structure.smiles	value.measured
CCS(=O)(=O)Nc1ccc(OC2CCC(F)(F)CC2)c(-c2cn(C)c(=O)c3[nH]ccc23)c1	92
Cn1cc(-c2cc(S(C)(=O)=O)ccc2Oc2ccc(Cl)cc2)c2cc[nH]c2c1=O	42

Please examine the following record next.
Prompt: Look up half-life at 0.5 μM for this compound: Cn1cc(-c2cc(S(C)(=O)=O)ccc2OCCN2CCCC2=O)c2cc[nH]c2c1=O
Response: 57

Sourced from patent US9296741B2
